Tested on: MS2 coat protein
Test: apparent Kd, MS2 coat protein; higher = weaker binding; RNA-MaP array; FMN 200 µM where present
Settings: designed as: OFF switch for flavin mononucleotide; no ligand
Please note: Yes applies when apparent Kd is 20 nM or greater, and No applies otherwise.

[[record]]
orderedresidues = "UCGUGAAGGACAGGAUAUGGACAUGAGGAUCACCCAUGUACAUGGGAAUAUAUACUGAAUUUGUACUAGAAGGGUUACAUAAAC"
class = "Yes"

[[record]]
orderedresidues = "GUCAGCUCGUGAGGAUAUACAACACUCCUUCGGCAGUGUAUUAAGAUCACAUGAGGAUCACCCAUGUAGAAGGCACGAGCUGAU"
class = "No"

[[record]]
orderedresidues = "UAGAAGUCAGGAUAUCCUGCUCGUCACUUGCGUGAUGAGUAGGAGAAGGGACAUGAGGAUCACCCAUGUAAAGA"
class = "Yes"

[[record]]
orderedresidues = "UAGAUGGGAGGAUAUACAUAGAUACAGAUUCGUGUAGUGCUACAUGAGGAUCACCCAUGUAGAAGGCCCGUCUU"
class = "No"

[[record]]
orderedresidues = "AAAAUGUCAGGAUAUGCGAAGGCGUCUGAUAGACGAGGCUAGCAGAAGGGACAUGAGGAUCACCCAUGUAAAAA"
class = "Yes"


Let us examine a further case.
IN: Threshold query (apparent Kd >= 20 nM) on GGAUAGUGAGGAUAUGCAUACGGUGUAAGUCCCAGAUCGAAACAUGAGGAUCACCCAUGUAGAAGGCGCAAAAC
OUT: Yes

====

Tested on: MS2 coat protein
Assay: apparent Kd, MS2 coat protein; higher = weaker binding; RNA-MaP array; FMN 200 µM where present
Conditions: designed as: ON switch for flavin mononucleotide; no ligand
Please note: class 1 applies when apparent Kd is 100 nM or greater, and class 0 applies otherwise.

[[record]]
orderedresidues = "UGGUACUAGGGAGGAUAUGGGAAGAUACAUGAGGAUCACCCAUGUUUAAGACUGCCGAGAGGCAACUAGAAGGCCCUAGUACCU"
class = "class 1"

[[record]]
orderedresidues = "GACAUGAGGAUCACCCAUGUCCAUGCAAGAGUAGUUGAGACCAGAAGGACCUUGCGGAGCGCAGGGUAGGAUAUGGAGCCCUCA"
class = "class 0"

[[record]]
orderedresidues = "GGAGCCGGUACUGAGGAUAUUCAUAUUAAAACAUGAGGAUCACCCAUGUGGGCCAGAAGGCCUUGGGAGAAGGCAGACCAGCUCG"
class = "class 1"


Let us examine a further case.
IN: Threshold query (apparent Kd >= 100 nM) on CACACAUGAGGAUCACCCAUGUCGUGGGCGGAAAACUGUGCACAGGAUAUGGUGAAGGCAACUCACCAGAAGGGUGGUCAGGGA
OUT: class 1

====

Property: apparent Kd; scope: individual sequences
Test system: MS2 coat protein
Assay: apparent Kd, MS2 coat protein; higher = weaker binding; RNA-MaP array; FMN 200 µM where present
Settings: ligand present: flavin mononucleotide; designed as: OFF switch for flavin mononucleotide
Numbers only; they are read as nM.

[[record]]
orderedresidues = "AUGCCGUGCAGAGCGCGACGGCGUACAUGAGGAUCACCCAUGUAGGAUAUACUACACAAAGUGUAGUAGAAGGACGUGCGACUG"
endpoint = "apparent Kd"
unitabbrev = "nM"
testvalue = 33.4

[[record]]
orderedresidues = "GGAUAGUACAGAGGAUAUACGUGCUAGAGAUACUAGCAAAAUUUCCUCACAUGAGGAUCACCCAUGUAGAAGGCUGUCCUAUCG"
endpoint = "apparent Kd"
unitabbrev = "nM"
testvalue = 51.8

[[record]]
orderedresidues = "UAGAUGGGAGGAUAUACAUAGAUACAGAUUCGUGUAGUGCUACAUGAGGAUCACCCAUGUAGAAGGCCCGUCUU"
endpoint = "apparent Kd"
unitabbrev = "nM"
testvalue = 71.9

[[record]]
orderedresidues = "AACUCUGAGAAGGAUAUUCAAUGGGAAACGAUGGAAGAAGGUUUCACAUGAGGAUCACCCAUGUCGAAUAGUGA"
endpoint = "apparent Kd"
unitabbrev = "nM"
testvalue = 63.9

[[record]]
orderedresidues = "UAGCAUUGCCUUUGGUAGUGCUUUACAUGAGGAUCACCCAUGUAGGAUAUGGUAGGCUUUGCUUACCAGAAGGACAUGAUAAUU"
endpoint = "apparent Kd"
unitabbrev = "nM"
testvalue = 166

[[record]]
orderedresidues = "UGAGUGCGUGUUAGGAUAUGGUUUGGUGUUUCGGGCUAGAAGGGACAUGAGGAUCACCCAUGUAAUUGGCGGGU"
endpoint = "apparent Kd"
unitabbrev = "nM"
testvalue = 250


Now take the following sequence into account.
IN: Form field: reported apparent Kd of GAGUAGAUCCGAGGAUAUACAAUCCGGAAACGGUACAUGAGGAUCACCCAUGUAGAAGGCGGAUCUACAGGUACUAAAGUACCG
OUT: 9.24

====

System: MS2 coat protein
Experiment: apparent Kd, MS2 coat protein; higher = weaker binding; RNA-MaP array; FMN 200 µM where present
Conditions: ligand present: flavin mononucleotide; designed as: OFF switch for flavin mononucleotide
endpoint: apparent Kd
Please don't drop the unit; write it after the number.

Guide cases for apparent Kd, answers given:
[[record]]
orderedresidues = "UGAUAACAUGUAGGAUAUCCAGCAUUGACCAUCGGAGAAGGACAUGAGGAUCACCCAUGUACCGAUACAAUGGGAUAAGGGAAU"
endpoint = "apparent Kd"
testvalue = "18.6 nM"

[[record]]
orderedresidues = "CAAAAGCGAGGAUAUACAUGAGGAUCACCCAUGUGGCAGCCAUGUAGGAGUGACGUCGGUAGAAGGCGCACCCU"
endpoint = "apparent Kd"
testvalue = "141 nM"

[[record]]
orderedresidues = "UCACACCACGUUAGGAUAUCGCUGGACAAAACUGGCGAGAAGGAACAUGAGGAUCACCCAUGUGACUUCAAGGU"
endpoint = "apparent Kd"
testvalue = "18.5 nM"

[[record]]
orderedresidues = "UUUUCUUUUGUGAGGAUAUACUUGUUUUUUUUUUUGUAGAAGGCACAUGAGGAUCACCCAUGUUUUCUUUCCUG"
endpoint = "apparent Kd"
testvalue = "19.8 nM"

[[record]]
orderedresidues = "GUACCUCAAGUGAGGAUAUGUCAUUACCGGUGAAGAUAGAAGGCACAUGAGGAUCACCCAUGUGUGGCUCCGUC"
endpoint = "apparent Kd"
testvalue = "95.8 nM"


IN: Form field: reported apparent Kd of CUGAAUCGAGGAUAUUGUACUGCUGACAUGAGGAUCACCCAUGUAUGUUAACUCGGCCGUCGAGAAGGCGAACAUA
OUT: 18 nM

IN: Form field: reported apparent Kd of ACAUUGCGAGGAUAUACAUGAGGAUCACCCAUGUGGUAGUGGAUACGGUAGGGCUAGUGUAGAAGGUGUCAUGG
OUT: 103 nM

IN: Form field: reported apparent Kd of AAAAUGUCAGGAUAUUGUUAGUUUAGUUGUUUGUAUUAGUUCGAGAAGGGACAUGAGGAUCACCCAUGUUGAAA
OUT: 33 nM

IN: Form field: reported apparent Kd of GGAUAGUGAGGAUAUGCAUACGGUGUAAGUCCCAGAUCGAAACAUGAGGAUCACCCAUGUAGAAGGCGCAAAAC
OUT: 75.5 nM

IN: Form field: reported apparent Kd of AAACAGCGAGAUAAUAAUGAUUACAUGAGGAUCACCCAUGUAUAGGAUAUCGUCAGGAAUACUGACGAGAAGGAUACAACGCUG
OUT: 26.5 nM

IN: Form field: reported apparent Kd of GCUGACGAUGUAGGAUAUCUCGACGAUAAGUCGAGAGAAGGACAUGAGGAUCACCCAUGUAAACUCACGUCAGCGAGGAAACUC
OUT: 17.2 nM

IN: Form field: reported apparent Kd of CGCACUUAUAGAGGAUAUGUUGUACAUGAGGAUCACCCAUGUGUUUUUGUAUCAAUAUUAGUGAAACAGAAGGCUAUUUGUGCG
OUT: 4.96 nM

IN: Form field: reported apparent Kd of CUAGAGGAUUAAGGAUAUGCAGAGAGAUCAUGCGCGUCGCGCACAUGAGGAUCACCCAUGUAAGAGCAGAAGGUAACUAUGAUC
OUT: 16.6 nM

IN: Form field: reported apparent Kd of CAAUUUAUAACAGGAUAUGUAUUACAAAAGUUAAUAGAAGGGUUUAAUACAUGAGGAUCACCCAUGUCAUGUGUCAUAAUUACC
OUT: 29.6 nM

IN: Form field: reported apparent Kd of CUGAGCUGAGGAUAUACAUGAGGAUCACCCAUGUGUUAGAGCUUGCGUACAGGCAGAUGUAGAAGGCAGUUCGG
OUT: 49.7 nM

====

Tested on: MS2 coat protein
Assay: apparent Kd, MS2 coat protein; higher = weaker binding; RNA-MaP array
Conditions: designed as: OFF switch for theophylline; no ligand
endpoint: apparent Kd (nM)
Numbers only; they are read as nM.

Guide cases for apparent Kd, answers given:
[[record]]
orderedresidues = "GUAGCUGAGUGUGAUACCAGAAACGACGUCCUUUAUCAUAACAUGAGGAUCACCCAUGUCUUCCCUUGGCAGCACUUUUCGGUCU"
endpoint = "apparent Kd"
testvalue = 36.9

[[record]]
orderedresidues = "CCCAAGCCAGCUGAUACCAGUGACGUGGUCAGAAUGUGCGACAUGAGGAUCACCCAUGUACACCCUUGGCAGCAGUAGAACGGUU"
endpoint = "apparent Kd"
testvalue = 14.4


Now take the following sequence into account.
IN: Form field: reported apparent Kd of AAGGCUACGACCGAUACCAGUAGACGGCAUUCGUAGGAGAACAUGAGGAUCACCCAUGUCUACCCUUGGCAGCGGAAAAUACACU
OUT: 13.5
